Target: Cannabinoid receptor 2 (Homo sapiens)
Sequence (P34972 whole entry): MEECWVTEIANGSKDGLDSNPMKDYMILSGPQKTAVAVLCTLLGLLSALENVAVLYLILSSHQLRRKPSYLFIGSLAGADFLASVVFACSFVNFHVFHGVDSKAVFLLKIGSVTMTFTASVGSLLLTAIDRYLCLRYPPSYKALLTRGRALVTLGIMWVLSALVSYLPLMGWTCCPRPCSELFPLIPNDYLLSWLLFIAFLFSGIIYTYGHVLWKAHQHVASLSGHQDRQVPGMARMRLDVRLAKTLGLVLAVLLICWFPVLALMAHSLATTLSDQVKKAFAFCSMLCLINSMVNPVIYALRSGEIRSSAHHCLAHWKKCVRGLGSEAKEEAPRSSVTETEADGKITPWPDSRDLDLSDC
Assay: Agonist activity at human CB2 receptor after 4 hrs by luciferase reporter gene assay
Measurement Kind: pEC50
Bear in mind: pEC50 is minus log10 of a mol/L concentration; give just that figure.

// known answers, use as guide
O=C(CN1CCCC1)Nc1sc2c(c1C(=O)N1CCC(F)(F)CC1)CCCC2: 6.68
O=C(Nc1sc2c(c1C(=O)N1CCOCC1)CCOC2)c1c(F)cccc1C(F)(F)F: 7.02
CC(C)c1ccccc1C(=O)Nc1sc2c(c1C(=O)N1CCOCC1)CCOC2: 7.46
O=C(Nc1sc2c(c1C(=O)NCC1CC1)CCC2)c1ccccc1Cl: 6.97
COC1CN(C(=O)c2c(NC(=O)c3ccccc3OC(F)(F)F)sc3c2CCOC3)C1: 7.42
CC1OCc2sc(NC(=O)CC(C)(C)C)c(C(=O)N3CC(F)(F)C3)c21 (stereo unspecified): 8.22

What value of pEC50 has been reported for the following compound? COCCNC(=O)c1c(NC(=O)c2ccccc2Cl)sc2c1CCC2
6.86

What value of pEC50 has been reported for the following compound? CC(C)(C)CC(=O)Nc1sc2c(c1C(=O)NCC1CC1)C(C)(C)CC2
8.19

What value of pEC50 has been reported for the following compound? O=C(Nc1sc2c(c1C(=O)N1CCOCC1)CCCC2)c1ccccc1Cl
8.00

What value of pEC50 has been reported for the following compound? COCCNC(=O)c1c(NC(=O)c2ccccc2Cl)sc2c1CCC(F)(F)C2
7.34

What value of pEC50 has been reported for the following compound? O=C(Nc1sc2c(c1C(=O)N1CC(F)(F)C1)CCC(F)(F)C2)c1ccccc1OC(F)(F)F
7.74

What value of pEC50 has been reported for the following compound? CC(C)(C)CC(=O)Nc1sc2c(c1C(=O)N1CC(F)(F)C1)CCCC2
8.27

What value of pEC50 has been reported for the following compound? O=C(CN1CCCC1)Nc1sc2c(c1C(=O)N1CC(F)(F)C1)CCCC2
6.40

What value of pEC50 has been reported for the following compound? O=C(Nc1sc2c(c1C(=O)N1CCC(F)(F)CC1)CCOC2)c1ccccc1C(F)(F)F
8.85

What value of pEC50 has been reported for the following compound? O=C(Nc1sc2c(c1C(=O)N1CCOCC1)CCOC2)c1ccccc1OC(F)F
6.31

What value of pEC50 has been reported for the following compound? COCCNC(=O)c1c(NC(=O)C2CCCC2)sc2c1CCCC2
7.15

What value of pEC50 has been reported for the following compound? COCCNC(=O)c1c(NC(=O)C2CCCN2C(=O)C2CC2)sc2c1CCCC2 (stereo unspecified)
6.46

What value of pEC50 has been reported for the following compound? CC(C)(C)CC(=O)Nc1sc2c(c1C(=O)N1CCC(F)(F)CC1)C(C)(C)CC2
6.89

What value of pEC50 has been reported for the following compound? O=C(CN1CCCCC1)Nc1sc2c(c1C(=O)N1CC(F)(F)C1)CCCC2
7.25

What value of pEC50 has been reported for the following compound? COCC(C)(C)NC(=O)c1c(NC(=O)c2ccccc2C(F)(F)F)sc2c1CCOC2
7.39

====

Target: Cannabinoid receptor 1 (Homo sapiens, UniProt P21554)
Sequence (P21554 whole entry): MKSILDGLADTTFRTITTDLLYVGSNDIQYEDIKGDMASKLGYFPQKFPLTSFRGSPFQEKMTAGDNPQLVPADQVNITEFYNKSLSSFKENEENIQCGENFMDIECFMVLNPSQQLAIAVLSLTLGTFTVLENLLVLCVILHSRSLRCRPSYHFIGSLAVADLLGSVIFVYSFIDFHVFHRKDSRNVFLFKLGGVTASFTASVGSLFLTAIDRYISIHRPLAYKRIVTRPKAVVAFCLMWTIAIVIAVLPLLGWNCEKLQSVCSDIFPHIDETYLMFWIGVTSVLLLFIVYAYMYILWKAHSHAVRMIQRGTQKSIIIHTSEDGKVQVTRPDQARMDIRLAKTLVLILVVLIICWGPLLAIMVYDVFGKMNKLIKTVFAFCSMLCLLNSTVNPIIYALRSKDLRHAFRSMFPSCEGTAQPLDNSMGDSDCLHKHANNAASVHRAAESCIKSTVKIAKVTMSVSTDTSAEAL
Test: Agonist activity at human CB1 receptor after 4 hrs by luciferase reporter gene assay
Items are presented alongside their recorded pEC50.
Bear in mind: pEC50 is minus log10 of a mol/L concentration; give just that figure.

COCCNC(=O)c1c(NC(=O)c2ccccc2Cl)sc2c1CCC(F)(F)C2: 6.02

Now look at this entry.
What measured pEC50 is associated with O=C(Nc1sc2c(c1C(=O)N1CCOCC1)CCOC2)c1c(F)cccc1C(F)(F)F on Cannabinoid receptor 1 (Homo sapiens, UniProt P21554)?
5.34

====

Molecular target: Cannabinoid receptor 1 (Homo sapiens)
Test: Agonist activity at human CB1 receptor after 4 hrs by luciferase reporter gene assay
Measurement Kind: log10 of EC50 (log10 of the value in µM)
For clarity, the numbers are log10 values of EC50 expressed in µM.

// known answers, use as guide
O=C(Nc1sc2c(c1C(=O)N1CCCCC1)CCOC2)c1ccccc1C(F)(F)F: -0.22
CC(C)c1ccccc1C(=O)Nc1sc2c(c1C(=O)N1CCOCC1)CCOC2: 0.18
Cc1ccccc1C(=O)Nc1sc2c(c1C(=O)N1CCOCC1)CCOC2: 0.87
O=C(CN1CCCCC1)Nc1sc2c(c1C(=O)N1CCC(F)(F)CC1)CCCC2: 0.51
O=C(Nc1sc2c(c1C(=O)N1CCC(F)(F)CC1)CCOC2)c1ccccc1C(F)(F)F: -1.10

What value of log10 of EC50 has been reported for the following molecule? O=C(Nc1sc2c(c1C(=O)N1CCCCC1)CCOC2)c1c(F)cccc1C(F)(F)F
0.00

What value of log10 of EC50 has been reported for the following molecule? O=C(Nc1sc2c(c1C(=O)N1CCOCC1)CCCC2)c1ccccc1Cl
-0.60

What value of log10 of EC50 has been reported for the following molecule? CC(C)(C)CC(=O)Nc1sc2c(c1C(=O)N1CCC(F)(F)CC1)CCCC2
-0.95

What value of log10 of EC50 has been reported for the following molecule? O=C(Nc1sc2c(c1C(=O)N1CCCCC1)CCOC2)c1ccccc1OC(F)(F)F
-0.03

What value of log10 of EC50 has been reported for the following molecule? COC1CN(C(=O)c2c(NC(=O)c3c(F)cccc3C(F)(F)F)sc3c2CCOC3)C1
0.82

What value of log10 of EC50 has been reported for the following molecule? O=C(Nc1sc2c(c1C(=O)NCC1CC1)CCOC2)c1c(F)cccc1C(F)(F)F
-0.09

What value of log10 of EC50 has been reported for the following molecule? O=C(Nc1sc2c(c1C(=O)N1CCC(F)(F)CC1)CCOC2)c1c(F)cccc1C(F)(F)F
-0.60

What value of log10 of EC50 has been reported for the following molecule? COCCNC(=O)c1c(NC(=O)C2CCCC2)sc2c1CCCC2
0.90

====

Test system: Mus musculus
Assay: Analgesic activity in NMRI mouse assessed as inhibition of acetic acid-induced writhing at 30 mg/kg, po measured for 30 mins relative to vehicle-treated control
Format: functional
The source made the active and inactive calls. The rule behind the calls is not given here.
Measurement Kind: inhibition

O=C(Nc1sc2c(c1C(=O)N1CC(F)(F)C1)CCOC2)c1ccccc1OC(F)(F)F: inactive
O=C(Nc1sc2c(c1C(=O)N1CCCCC1)CCOC2)c1ccccc1OC(F)(F)F: inactive
COCCNC(=O)c1c(NC(=O)c2ccccc2C(F)(F)F)sc2c1CCOC2: inactive
COCCNC(=O)c1c(NC(=O)c2c(F)cccc2C(F)(F)F)sc2c1CCOC2: inactive

====

Species on record: Homo sapiens
Experiment: Selectivity ratio of EC50 for human CB1 receptor to EC50 for human CB2 receptor
Items are presented alongside their recorded Ratio EC50.
Please give only the number in your answer, with no unit.

// known answers, use as guide
O=C(Nc1sc2c(c1C(=O)N1CCOCC1)CCOC2)c1ccccc1Cl: 14
O=C(Nc1sc2c(c1C(=O)N1CCOCC1)CCOC2)c1c(Cl)cccc1Cl: 7
O=C(Nc1sc2c(c1C(=O)N1CCOCC1)CCOC2)c1ccccc1C(F)(F)F: 50
Cc1ccccc1C(=O)Nc1sc2c(c1C(=O)N1CCOCC1)CCOC2: 12
COCCNC(=O)c1c(NC(=O)C2CCCC2)sc2c1CCCC2: 113
CC(C)(C)CC(=O)Nc1sc2c(c1C(=O)N1CC(F)(F)C1)CCCC2: 63
COCCNC(=O)c1c(NC(=O)c2c(F)cccc2C(F)(F)F)sc2c1CCOC2: 385

Now look at this entry.
What value of Ratio EC50 has been reported for the following molecule? O=C(Nc1sc2c(c1C(=O)N1CCCCC1)CCOC2)c1ccccc1OC(F)(F)F
98

====

Molecular target: Cannabinoid receptor 2 (Mus musculus, UniProt P47936)
Sequence (P47936 whole entry): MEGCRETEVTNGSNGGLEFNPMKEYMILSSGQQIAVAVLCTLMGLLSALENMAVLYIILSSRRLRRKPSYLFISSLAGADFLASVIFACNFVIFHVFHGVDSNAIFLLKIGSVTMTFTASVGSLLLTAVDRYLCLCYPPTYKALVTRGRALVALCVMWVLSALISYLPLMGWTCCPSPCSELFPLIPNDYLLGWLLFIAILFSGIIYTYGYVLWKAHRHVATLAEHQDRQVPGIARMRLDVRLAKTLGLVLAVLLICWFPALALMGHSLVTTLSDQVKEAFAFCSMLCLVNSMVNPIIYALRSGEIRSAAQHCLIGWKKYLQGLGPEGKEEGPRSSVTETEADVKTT
Test: Agonist activity at mouse CB2 receptor after 4 hrs by luciferase reporter gene assay
Measurement Kind: EC50 (µM)
Report the figure in µM without appending any unit label.

What value of EC50 has been reported for the following compound? O=C(Nc1sc2c(c1C(=O)N1CCOCC1)CCCC2)c1ccccc1Cl
0.05

====

Target: UniProtKB P34972
Test: Agonist activity at human CB2 receptor after 4 hrs by luciferase reporter gene assay
Items are presented alongside their recorded pEC50.
Bear in mind: pEC50 is minus log10 of a mol/L concentration; give just that figure.

// known answers, use as guide
O=C(CN1CCCCC1)Nc1sc2c(c1C(=O)N1CCC(F)(F)CC1)CCCC2: 7.59
COCCNC(=O)c1c(NC(=O)c2ccccc2OC(F)(F)F)sc2c1CCC(F)(F)C2: 7.20

Now look at this entry.
What value of pEC50 has been reported for the following compound? COCCNC(=O)c1c(NC(=O)CC(C)(C)C)sc2c1CCCC2
7.64
